The measured values listed here are drawn from ChEMBL document CHEMBL3352377.

# assay method text: Fraction unbound in mouse plasma
# Type: ADME, cell-free
measured property: fraction unbound

sample_smiles=C[C@@H]1C(=O)NN=C2COc3cc(C(F)(F)F)c(NC4(C)CNC4)cc3N21 reading=0.27

###

# assay method text: Plasma concentration in concanavalin A-induced Balb/c mouse at 1 mg/kg, po dosed 2 hrs before concanavalin A challenge
# Type: ADME, organism-based
# Set-up: dose 1 mg/kg, route oral
measured property: concentration at 2 h (nM)

sample_smiles=C[C@@H]1C(=O)NN=C2COc3cc(C(F)(F)F)c(NC4(C)CNC4)cc3N21 reading=37

###

Listed compounds paired with reported IC50
# system name: Protein kinase C gamma type (Homo sapiens)
# assay method text: Inhibition of human recombinant PKCgamma expressed in Sf21 cells using Bio-cdc peptide substrate and ATP after 60 mins by time-resolved fluorescence in-vitro kinase assay
measured property: IC50

sample_smiles=Cc1cc2c(cc1NC1CNC1)N1C(=NNC(=O)[C@H]1C)CO2 measured_property=IC50 reading="23 µM"
sample_smiles=C[C@@H]1C(=O)NN=C2COc3cc(-c4ccccc4)c(NC4CNC4)cc3N21 measured_property=IC50 reading="13 µM"
sample_smiles=C[C@@H]1C(=O)NN=C2COc3cc(C(F)(F)F)c(NC4CNC4)cc3N21 measured_property=IC50 reading="7.8 µM"

###

# assay method text: Plasma concentration in concanavalin A-induced Balb/c mouse at 100 mg/kg, po dosed 2 hrs before concanavalin A challenge
# Assay type: ADME, organism-based
# Set-up: dose 100 mg/kg, route oral
measured property: concentration at 2 h

sample_smiles=C[C@@H]1C(=O)NN=C2COc3cc(C(F)(F)F)c(NC4(C)CNC4)cc3N21 reading="2500 nM"

###

Listed molecules paired with reported Cmax
# assay method text: Cmax in rat at 1 mg/kg, iv or 3 mg/kg, po
# Type: ADME, organism-based
# run parameters: in vivo
measured property: Cmax (ng/mL)

sample_smiles=Cc1cc2c(cc1NC1CNC1)N1C(=NNC(=O)[C@H]1C)CO2 measured_property=Cmax reading=8.7
sample_smiles=C[C@@H]1C(=O)NN=C2COc3cc(C(F)(F)F)c(NC4(C)CNC4)cc3N21 measured_property=Cmax reading=160
sample_smiles=C[C@@H]1C(=O)NN=C2COc3cc(-c4ccccc4)c(NC4CNC4)cc3N21 measured_property=Cmax reading=5.3
sample_smiles=C[C@@H]1C(=O)NN=C2COc3cc(C(F)(F)F)c(NC4CNC4)cc3N21 measured_property=Cmax reading=80

###

# assay method text: Cmax in mouse at 3 mg/kg, iv or 10 mg/kg, po
# Format: ADME, organism-based
# run parameters: in vivo
Listed compounds paired with reported Cmax
measured property: Cmax (ng/mL)

sample_smiles=C[C@@H]1C(=O)NN=C2COc3cc(C(F)(F)F)c(NC4CNC4)cc3N21 reading=342
sample_smiles=C[C@@H]1C(=O)NN=C2COc3cc(C(F)(F)F)c(NC4(C)CNC4)cc3N21 reading=846

###

# assay method text: Plasma clearance in mouse at 3 mg/kg, iv or 10 mg/kg, po
# Type: ADME, organism-based
measured property: clearance (mL/min/kg)

sample_smiles=C[C@@H]1C(=O)NN=C2COc3cc(C(F)(F)F)c(NC4CNC4)cc3N21 measured_property=clearance reading=96.7
sample_smiles=C[C@@H]1C(=O)NN=C2COc3cc(C(F)(F)F)c(NC4(C)CNC4)cc3N21 measured_property=clearance reading=25
